SYSTEM_NAME: human arginase II (Homo sapiens, UniProt P78540)
Sequence (P78540 23-354): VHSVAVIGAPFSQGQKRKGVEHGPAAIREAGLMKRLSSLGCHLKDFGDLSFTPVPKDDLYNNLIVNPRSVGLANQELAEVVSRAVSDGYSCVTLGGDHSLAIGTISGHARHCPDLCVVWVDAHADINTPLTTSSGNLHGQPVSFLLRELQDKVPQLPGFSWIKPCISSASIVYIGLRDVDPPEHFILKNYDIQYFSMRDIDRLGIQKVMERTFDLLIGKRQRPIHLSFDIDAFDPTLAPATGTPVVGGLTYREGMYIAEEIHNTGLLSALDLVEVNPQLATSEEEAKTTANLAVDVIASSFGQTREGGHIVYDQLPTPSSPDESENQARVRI
TEST_PROTOCOL: Arginase inhibition, QuantiChrom colorimetric urea assay, IC50 converted to Ki
Format: biochemical
REPORTED_CONDITIONS: Table 2; pH 9.5; read-out: human arginase II pH 9.5, Ki assigned value
pKi: −log10 of the molar value.
Give measured pKi for each item. Keep answers brief.

Returns the measured pKi for the input compound. Input: N[C@@H](CCCCB(O)O)C(=O)O [ABH, 2(S)-amino-6-boronohexanoic acid] 7.30 to 7.96

Returns the measured pKi for the input compound. Input: NC(CCCCB(O)O)(CCCC1CCN(Cc2ccc(Cl)c(Cl)c2)CC1)C(=O)O (stereo not shown) [Comparative Example 2, reference compound] 7.30 to 7.96

Returns the measured pKi for the input compound. Input: NC(CCCCB(O)O)(CCCN1CCC(Cc2ccc(F)c(F)c2)CC1)C(=O)O (stereo not shown) [Example 28] > 8.00

Returns the measured pKi for the input compound. Input: NC(CCCCB(O)O)(CCCN1CCN(Cc2ccc(Cl)c(Cl)c2)CC1)C(=O)O (stereo not shown) [Example 8] 7.30 to 7.96
